# Tested on: LoVo
# test summary: SRB colorimetric assay of cell growth and viability, LoVo
# Type: cell-based, human
# condition summary: LOVO; 48 hours exposure; read-out: LC50 LOVO
Where a SMILES comes first, the peptide text is derived from it. Bridges are numbered along the chain shown (N, C = ends). [ ]: non-standard residue; d: D form. The star is where a group is joined. d(aIle) = CC[C@H](C)[C@@H](N)C(=O)O; d(aThr) = C[C@@H](O)[C@@H](N)C(=O)O; Hexanoyl(5-Me) = CC(C)CCCC(=O)*; Phg = N[C@H](C(=O)O)c1ccccc1; Orn = NCCC[C@H](N)C(=O)O; Dhb = C/C=C(\N)C(=O)O
Exercise: for every item that follows, state its recorded log10 of CC50.
The base-10 logarithm of CC50, taken with CC50 in nM, is what appears here.

Query: Give me measured log10 of CC50, please, for this molecule: C/C=C1\NC(=O)[C@H](Cc2ccc(F)c(F)c2)NC(=O)[C@@H](C(C)C)NC(=O)[C@@H]([C@@H](C)CC)NC(=O)[C@H](NC(=O)[C@H](NC(=O)[C@H](CCCN)NC(=O)[C@H]2CCCN2C(=O)[C@H](NC(=O)[C@@H](NC(=O)[C@@H](NC(=O)[C@H](NC(=O)CCCC(C)C)C(C)C)[C@@H](C)O)C(C)C)C(C)C)[C@@H](C)CC)[C@@H](C)OC(=O)[C@H](C(C)C)NC1=O [Compound 84, [Phe(3,4-F2)^3]-KF]
Reply: 2.18

Query: Give the reported log10 of CC50 for this molecule. C/C=C1\NC(=O)[C@H](c2ccccc2)NC(=O)[C@@H](C(C)C)NC(=O)[C@@H]([C@@H](C)CC)NC(=O)[C@H](NC(=O)[C@H](NC(=O)[C@H](CCCN)NC(=O)[C@H]2CCCN2C(=O)[C@H](NC(=O)[C@@H](NC(=O)[C@@H](NC(=O)[C@H](NC(=O)CCCC(C)C)C(C)C)[C@@H](C)O)C(C)C)C(C)C)[C@@H](C)CC)[C@@H](C)OC(=O)[C@H](C(C)C)NC1=O [Compound 87, [Phg^3]-KF] ({Hexanoyl(5-Me)}-[dV]TV[dV][dP][Orn][d(aIle)][d(aThr)][d(aIle)][dV][Phg][Dhb]V; ester 8-C)
Reply: 3.28

Query: Please give the documented log10 of CC50 of C/C=C1\NC(=O)[C@H](Cc2ccc(Cl)cc2)NC(=O)[C@@H](C(C)C)NC(=O)[C@@H]([C@@H](C)CC)NC(=O)[C@H](NC(=O)[C@H](NC(=O)[C@H](CCCN)NC(=O)[C@H]2CCCN2C(=O)[C@H](NC(=O)[C@@H](NC(=O)[C@@H](NC(=O)[C@H](NC(=O)CCCC(C)C)C(C)C)[C@@H](C)O)C(C)C)C(C)C)[C@@H](C)CC)[C@@H](C)OC(=O)[C@H](C(C)C)NC1=O [Compound 83, [Phe(4-Cl)^3]-KF]
Reply: 2.22

Query: Specify log10 of CC50 for [2H]C([2H])([2H])C([2H])(C([2H])([2H])[2H])[C@]([2H])(NC(=O)[C@@H](NC(=O)[C@H](NC(=O)CCCC(C)C)C(C)C)[C@@H](C)O)C(=O)N[C@@H](C(=O)N1CCC[C@@H]1C(=O)N[C@@H](CCCN)C(=O)N[C@@H](C(=O)N[C@H]1C(=O)N[C@H]([C@@H](C)CC)C(=O)N[C@H](C(C)C)C(=O)N[C@@H](Cc2ccccc2)C(=O)N/C(=C\C)C(=O)N[C@@H](C(C)C)C(=O)O[C@@H]1C)[C@@H](C)CC)C(C)C [Compound 100, [L-Val-d8^11]-KF] and stop.
Reply: 3.10

Query: Assign log10 of CC50 to the following record: C/C=C1\NC(=O)[C@H](Cc2ccccc2)NC(=O)[C@@H](C(C)C)NC(=O)[C@@H]([C@@H](C)CC)NC(=O)[C@H](NC(=O)[C@H](NC(=O)[C@H](CCCN)NC(=O)[C@H]2CCCCN2C(=O)[C@H](NC(=O)[C@@H](NC(=O)[C@@H](NC(=O)[C@H](NC(=O)CC[C@@H](C)CC)C(C)C)[C@@H](C)O)C(C)C)C(C)C)[C@@H](C)CC)[C@@H](C)OC(=O)[C@H](C(C)C)NC1=O [Compound 60, [D-Pip^9, (4S)-MeHex^14]-KF]
Reply: 3.76

Query: Output measured log10 of CC50 for this item: C/C=C1\NC(=O)[C@H](Cc2ccccc2Cl)NC(=O)[C@@H](C(C)C)NC(=O)[C@@H]([C@@H](C)CC)NC(=O)[C@H](NC(=O)[C@H](NC(=O)[C@H](CCCN)NC(=O)[C@H]2CCCN2C(=O)[C@H](NC(=O)[C@@H](NC(=O)[C@@H](NC(=O)[C@H](NC(=O)CCCC(C)C)C(C)C)[C@@H](C)O)C(C)C)C(C)C)[C@@H](C)CC)[C@@H](C)OC(=O)[C@H](C(C)C)NC1=O [Compound 81, [Phe(2-Cl)^3]-KF]
Reply: 2.65

Query: Identify measured log10 of CC50 associated with C/C=C1\NC(=O)[C@H](Cc2ccccc2)NC(=O)[C@@H](C(C)C)NC(=O)[C@@H]([C@@H](C)CC)NC(=O)[C@H](NC(=O)[C@H](NC(=O)[C@H](CCCNC(=O)CCCC[C@@H]2SC[C@@H]3NC(=O)N[C@@H]32)NC(=O)[C@H]2CCCN2C(=O)[C@H](NC(=O)[C@@H](NC(=O)[C@@H](NC(=O)[C@H](NC(=O)CCCC(C)C)C(C)C)[C@@H](C)O)C(C)C)C(C)C)[C@@H](C)CC)[C@@H](C)OC(=O)[C@H](C(C)C)NC1=O [Compound 99, [Orn(Biot)^8]-Kahalalide F]
Reply: 2.69

Query: Return the recorded log10 of CC50 value; entry: C/C=C1\NC(=O)[C@H](Cc2cccc(Cl)c2)NC(=O)[C@@H](C(C)C)NC(=O)[C@@H]([C@@H](C)CC)NC(=O)[C@H](NC(=O)[C@H](NC(=O)[C@H](CCCN)NC(=O)[C@H]2CCCN2C(=O)[C@H](NC(=O)[C@@H](NC(=O)[C@@H](NC(=O)[C@H](NC(=O)CCCC(C)C)C(C)C)[C@@H](C)O)C(C)C)C(C)C)[C@@H](C)CC)[C@@H](C)OC(=O)[C@H](C(C)C)NC1=O [Compound 82, [Phe(3-Cl)^3]-KF]
Reply: 2.26

====

Kindly supply the reported LC50 (concentration causing 50% net cell kill) values for the records listed here.
# Tested on: DU-145
# test summary: SRB colorimetric assay of cell growth and viability, DU-145
# Format: cell-based, human
# condition summary: 48 hours exposure
Where a SMILES comes first, the peptide text is derived from it. Bridges are numbered along the chain shown (N, C = ends). [ ]: non-standard residue; d: D form. The star is where a group is joined. d(aIle) = CC[C@H](C)[C@@H](N)C(=O)O; d(aThr) = C[C@@H](O)[C@@H](N)C(=O)O; Hexanoyl(5-Me) = CC(C)CCCC(=O)*; Orn = NCCC[C@H](N)C(=O)O
State the answer as a number, implicitly in µM.

Query: Return LC50 (concentration causing 50% net cell kill) for the following compound: C/C=C1\NC(=O)[C@H](Cc2ccccc2)NC(=O)[C@@H](C(C)C)NC(=O)[C@@H]([C@@H](C)CC)NC(=O)[C@H](NC(=O)[C@H](NC(=O)[C@H](CCCN)NC(=O)[C@H]2CCCN2C(=O)[C@H](NC(=O)[C@@H](NC(=O)[C@@H](NC(=O)[C@@H](NC(=O)CCCC(C)C)C(C)C)[C@@H](C)O)C(C)C)C(C)C)[C@@H](C)CC)[C@@H](C)OC(=O)[C@H](C(C)C)NC1=O [Compound 38, [Val^13]-KF]
Reply: 4.22

Query: Give me measured LC50 (concentration causing 50% net cell kill), please, for this compound: C/C=C1\NC(=O)[C@H](Cc2ccccc2)NC(=O)[C@@H](C(C)C)NC(=O)[C@@H]([C@@H](C)CC)NC(=O)[C@H](NC(=O)[C@H](NC(=O)[C@H](CCCN)NC(=O)[C@H]2CCCN2C(=O)[C@H](NC(=O)[C@@H](NC(=O)[C@@H](NC(=O)[C@H](NC(=O)Cc2ccc(C(F)(F)F)cc2)C(C)C)[C@@H](C)O)C(C)C)C(C)C)[C@@H](C)CC)[C@@H](C)OC(=O)[C@H](C(C)C)NC1=O [Compound 25, [p-CF3PhAc^14]-KF]
Reply: 2.38

Query: Query LC50 (concentration causing 50% net cell kill) for C/C=C1\NC(=O)[C@H](Cc2ccccc2)NC(=O)[C@@H](C(C)C)NC(=O)[C@@H](C(C)CC)NC(=O)[C@H](NC(=O)[C@H](NC(=O)[C@H](CCCN)NC(=O)[C@H]2CCCN2C(=O)[C@H](NC(=O)[C@@H](NC(=O)[C@@H](NC(=O)[C@H](NC(=O)CCC(C)CC)C(C)C)C(C)O)C(C)C)C(C)C)C(C)CC)C(C)OC(=O)[C@H](C(C)C)NC1=O (stereo partly shown)
Reply: 2.54

Query: // fetch LC50 (concentration causing 50% net cell kill) given entry CC[C@H](C)[C@@H](NC(=O)[C@H](CCCN)NC(=O)[C@H]1CCCN1C(=O)[C@H](NC(=O)[C@@H](NC(=O)[C@@H](NC(=O)[C@H](NC(=O)CCCC(C)C)C(C)C)[C@@H](C)O)C(C)C)C(C)C)C(=O)N[C@H]1C(=O)N[C@H]([C@@H](C)CC)C(=O)N[C@H](C(C)C)C(=O)N[C@@H](Cc2ccccc2)C(=O)NCC(=O)N[C@@H](C(C)C)C(=O)O[C@@H]1C [Compound 65, [Gly^2]-KF] ({Hexanoyl(5-Me)}-[dV]TV[dV][dP][Orn][d(aIle)][d(aThr)][d(aIle)][dV]FGV; ester 8-C)
Reply: 4.44

The measured values listed here are drawn from patent US20070117743A1.
